System: K562
assay remarks: NCI tumour cell line growth inhibition, 48 h
Activity calls are given as the source filed them. Cut-off read from the data, not from the text of the source: active = GI50 up to about 1.1 µM and inactive = higher.
Bench note: report the call from active, inactive

Identify the outcome logged in this assay for the compound shown: "COC(=O)c1c(C(=O)OC)c2ccc(-c3ccc(Cl)cc3)nn2c1C(=O)c1ccc([N+](=O)[O-])cc1"
inactive

Entry to check: CCC1(c2c(F)c(F)c(N)c(F)c2F)CCC(=O)NC1=O (stereo not given)
inactive

Entry to check: "CCOC(=O)CN1C(=O)c2c(NC(=O)C(=O)O)cccc2S1(=O)=O"
inactive

Entry to check: COCC(=O)[C@]1(O)Cc2c(O)c3c(c(O)c2[C@@H](OC2CC(N)C(O)C(C)O2)C1)C(=O)c1c(OC)cccc1C3=O (stereo not given in full)
active

Entry to check: c1ccc(C2=NOC(c3ccccc3)N2C23CC4CC(CC(C4)C2)C3)cc1 (stereo not given)
inactive

###

System: OVCAR-3
assay remarks: NCI tumour cell line growth inhibition, 48 h
Active and inactive are the calls of the source. Rule as the data show it: active = GI50 up to about 1.1 µM and inactive = higher.
Kindly supply the reported GI50 values for the records listed here.

Any idea what its GI50 is? The compound is COC(=O)C1=C(O)C(C(=O)OC)[C@@]2(O)[C@@H](C(=O)OC)[C@H](C)[C@@H](C)[C@@H]1[C@@H]2C(=O)OC (stereo partly drawn)
27 µM (inactive)

Entry to check: O=C1OCC2OC(=O)c3cc(O)c(O)c(O)c3-c3c(O)c(O)c(O)c4c3C(=O)OC(C2OC(=O)c2cc(O)c(O)c(O)c2-c2c1cc(O)c(O)c2O)C1OC(=O)c2c-4c(O)c(O)c(O)c2[C@@H]1C(O)C(O)C(O)C(O)CO (stereo partly drawn)
28.2 µM (inactive)

Entry to check: C=C(C)C1Cc2c(cc(OC)c3c(=O)c4ccccc4n(C)c23)O1 (stereo not drawn)
> 100 µM (inactive)

Entry to check: "COc1ccc(-c2onc(-c3c(C)cc(C)cc3C)c2C2=NCCN2)cc1"
> 10 µM (inactive)

Entry to check: "OCCN1CCN(c2nc(N3CCCC3)c3nc(Cl)c(NCc4ccccc4)nc3n2)CC1"
8.02 µM (inactive)

Entry to check: "CN(C)CCNc1c([N+](=O)[O-])sc2ccc(Cl)cc12"
> 100 µM (inactive)

Entry to check: COc1cc2c(cc1OC)[C@@H](C(O)c1ccccc1)NCC2 (stereo partly drawn)
> 100 µM (inactive)

Entry to check: "CN(C)CCCNC(=O)c1cc(NC(=O)c2cc(NC(=O)CCCn3c4ccccc4c4ccccc43)cn2C)cn1C"
13.4 µM (inactive)

###

Tested on: EKVX
assay remarks: NCI tumour cell line growth inhibition, 48 h
Active and inactive are the calls of the source. No stated cut-off is given here; in the data, active = GI50 up to about 1.1 µM and inactive = higher.
Kindly supply the reported GI50 values for the records listed here.

Any idea what its GI50 is? The molecule is CCCCCCCCCC[C@@H](O)[C@@H]1CC[C@@H]([C@@H]2CC[C@@H]([C@@H](O)CCCCCCCCCCC(O)CC3=CC(C)OC3=O)O2)O1 (stereo partly drawn)
3.03 µM (inactive)

Entry to check: COc1ccc(NC(=O)CC(=O)N2N=C(N(c3ccccc3)c3ccccc3)CC2c2ccccc2)cc1 (stereo not drawn)
> 100 µM (inactive)

Entry to check: "CC(=O)COC(=O)CC(C)=O"
> 100 µM (inactive)

Entry to check: "CC(=O)NNc1nc(C)c(C(=O)NNC(=O)C(=O)Nc2c(C)cccc2C(C)(C)C)s1"
> 100 µM (inactive)

Entry to check: "CCOC(=O)CN1C(=O)c2c(NC(=O)C(=O)O)cccc2S1(=O)=O"
> 100 µM (inactive)

Entry to check: Cc1ccc(C(=O)Nc2ncn(C3CC(O)C(CO)O3)c(=O)n2)cc1 (stereo not drawn)
> 100 µM (inactive)

Entry to check: "COc1ccc(CNC2=Nc3ccncc3S(=O)(=O)N2c2ccccc2)cc1"
65 µM (inactive)

Entry to check: "O=C(/C=N/O)Nc1cccc(Cl)c1I"
8.83 µM (inactive)

Entry to check: "COC(=O)[C@]12CSC[C@H]1C[C@H](c1ccccc1OC)N2"
> 100 µM (inactive)

Entry to check: OC(CN(CCCl)CCCl)C(O)C(O)C(O)CN(CCCl)CCCl (stereo not drawn)
> 100 µM (inactive)

Entry to check: O=C1CCCCC1S(=O)(=O)c1ccccc1 (stereo not drawn)
> 100 µM (inactive)

Entry to check: "COc1cccc(/C=N/n2c(Cc3ccc(Cl)cc3)n[nH]c2=O)c1"
29.6 µM (inactive)

Entry to check: CCCCCCCCCCCC(=O)N(CCCCCCCCC)CC(O)C(O)C(OC1OC(CO)C(O)C(O)C1O)C(O)CO (stereo not drawn)
17.3 µM (inactive)

Entry to check: CC1=CC2C(=O)N(c3ccccc3)C(=O)C2CC1n1[nH]c(=O)n(Cc2ccccc2)c1=O (stereo not drawn)
> 100 µM (inactive)

Entry to check: CCNC(=O)C1CCCN1C(=O)C(CCCN=C(N)N)NC(=O)C(CC(C)C)NC(=O)C(Cc1c[nH]c2ccccc12)NC(=O)C(Cc1ccc(O)cc1)NC(=O)C(CO)NC(=O)C(Cc1c[nH]c2ccccc12)NC(=O)C(Cc1c[nH]cn1)NC(=O)C1CCC(=O)N1 (stereo not drawn)
> 100 µM (inactive)

Entry to check: "CC(C)(C)/N=C1/CC(C)(C)c2ccccc2/C(=N\c2ccccc2)S1"
55.5 µM (inactive)

Entry to check: "O=C(/C=C1\N=C(c2ccccc2)N(c2nc3c(Cl)cc(Cl)cc3s2)C1=O)/C=C/c1ccccc1"
> 100 µM (inactive)

Entry to check: C/C=C(\C)[C@@H](O)C(=O)O[C@@H]1CC(C(C)(C)O)[C@](C)(CCC(=O)OC)[C@H]2[C@H](OC(=O)[C@H](O)[C@H](C)CC)C[C@]3(C)C(=CC[C@H]3[C@H]3CO[C@H](C=C(C)C)C3)[C@]12C (stereo partly drawn)
15.3 µM (inactive)

###

Test system: IGROV-1
assay remarks: NCI tumour cell line growth inhibition, 48 h
Active and inactive are the calls of the source. No stated cut-off is given here; in the data, active = GI50 up to about 1.1 µM and inactive = higher.
attribute measured: GI50

Recorded GI50 for CC(=O)OCC1OC(N2C(=O)/C(=C\c3ccc(Cl)cc3)C(N)=Nc3ccccc32)C(OC(C)=O)C(OC(C)=O)C1OC(C)=O (configuration not stated) with IGROV-1, please?
19.6 µM (inactive)

Entry to check: COc1ccc(NC(=O)CC(=O)N2N=C(N(c3ccccc3)c3ccccc3)CC2c2ccccc2)cc1 (configuration not stated)
> 100 µM (inactive)

Entry to check: "CCOC(=O)C(=CNC(=S)c1ccncc1)C(=O)OCC"
> 100 µM (inactive)

Entry to check: COc1cccc2c1C1(O)C2CCCCCCCCCC12OCCCO2 (configuration not stated)
41.3 µM (inactive)

Entry to check: "CNC(=S)c1nnsc1N"
2.99 µM (inactive)

Entry to check: "CCP(=S)(CC)CCl"
> 100 µM (inactive)

Entry to check: "CC(C)OP(=O)(OC(C)C)C(C(F)(F)F)C(F)(F)F"
> 100 µM (inactive)

###

System: SF-539
assay remarks: NCI tumour cell line growth inhibition, 48 h
Calls of active or inactive are those of the source. Rule as the data show it: active = GI50 up to about 1.1 µM and inactive = higher.
Bench note: report the call from active, inactive

Identify the outcome logged in this assay for the compound shown: O=C(NC(Cc1ccccc1)C(=O)CCl)OCc1ccccc1 (stereo not drawn)
inactive

Entry to check: "COc1ccc(NC(=S)NN=C(C)c2cccc(C(C)=NNC(=S)Nc3ccc(OC)cc3)n2)cc1"
inactive

Entry to check: O=C1CCC2(c3ccc(Cl)cc3)Nc3ccccc3N12 (stereo not drawn)
inactive

Entry to check: "COc1ccc(Cc2cc(OC)c(OC)c(OC)c2)cc1"
active

Entry to check: COc1cc2c(cc1OC)[C@H]1C(COC(=O)Nc3ccccc3)CN1CC2 (stereo partly drawn)
inactive

Entry to check: CN1CCCC2(CCCc3ccccc32)C1 (stereo not drawn)
inactive

Entry to check: "C=CC[C@@]1([C@H](C=C)COCc2ccc(OC)cc2)CC[C@]2(C)OC(C)(C)[C@@H](c3ccccc3)N2C1=S"
inactive

Entry to check: OC[C@H]1CCCC1O (stereo partly drawn)
inactive

Entry to check: "O=c1c2cccnc2ncn1CCCN1CCCCC1"
inactive

Entry to check: "CNC(=S)c1nnsc1N"
inactive

Entry to check: COC1(OC)C2C=CC1C([C@](C)(N)CO)C2 (stereo partly drawn)
inactive

Entry to check: "O=C(Nc1cc(Cl)ccc1Cl)c1cc2ccccc2oc1=O"
inactive

Entry to check: CC(=O)OC1CC2(O)C(CCC3(C)C(c4ccc(=O)oc4)CCC32O)C2(C)CCC(O)C=C12 (stereo not drawn)
active

Entry to check: "CN(C)CCCNC(=O)c1cc(NC(=O)c2cc(NC(=O)CCCn3c4ccccc4c4ccccc43)cn2C)cn1C"
inactive

Entry to check: "CC(C)(C)c1cc(C(C)(C)C)c2sc(=S)oc2c1O"
inactive

Entry to check: "O=C(/C=C/c1ccccc1)CCc1c(O)c2ccccc2oc1=O"
inactive

Entry to check: COCC(=O)[C@]1(O)Cc2c(O)c3c(c(O)c2[C@@H](OC2CC(N)C(O)C(C)O2)C1)C(=O)c1c(OC)cccc1C3=O (stereo partly drawn)
active

Entry to check: Cc1ccc(C(=O)Nc2ncn(C3CC(O)C(CO)O3)c(=O)n2)cc1 (stereo not drawn)
inactive

Entry to check: "N#CCCC(C#N)(C#N)CCC#N"
inactive

Entry to check: O=C(CC(C(=O)c1ccsc1)c1ccccc1)c1ccccc1 (stereo not drawn)
inactive

Entry to check: COc1cc2c(cc1OC)[C@@H](C(O)c1ccccc1)NCC2 (stereo partly drawn)
inactive

Entry to check: COc1cc2c3c(c1OC)Oc1ccc(cc1)CC1c4c(cc(OC)c(OC)c4Oc4ccc(cc4)CC3N(C)CC2)CCN1C (stereo not drawn)
inactive

Entry to check: CN(C)CC1CC/C(=C\c2ccc(O)cc2)C1=O (stereo not drawn)
inactive
